Overview of reported IC50 across a group of molecules:
# SYSTEM_TESTED: L-type calcium channel (LTCC) subunits (α1c, α2δ, and β1) (Rattus norvegicus)
# Construct: pcDNA6.2DEST for α1c, pcDNA3.2DEST for β1, pcDNA3.1-Zeo for α2δ
# Sequence (P22002 whole entry): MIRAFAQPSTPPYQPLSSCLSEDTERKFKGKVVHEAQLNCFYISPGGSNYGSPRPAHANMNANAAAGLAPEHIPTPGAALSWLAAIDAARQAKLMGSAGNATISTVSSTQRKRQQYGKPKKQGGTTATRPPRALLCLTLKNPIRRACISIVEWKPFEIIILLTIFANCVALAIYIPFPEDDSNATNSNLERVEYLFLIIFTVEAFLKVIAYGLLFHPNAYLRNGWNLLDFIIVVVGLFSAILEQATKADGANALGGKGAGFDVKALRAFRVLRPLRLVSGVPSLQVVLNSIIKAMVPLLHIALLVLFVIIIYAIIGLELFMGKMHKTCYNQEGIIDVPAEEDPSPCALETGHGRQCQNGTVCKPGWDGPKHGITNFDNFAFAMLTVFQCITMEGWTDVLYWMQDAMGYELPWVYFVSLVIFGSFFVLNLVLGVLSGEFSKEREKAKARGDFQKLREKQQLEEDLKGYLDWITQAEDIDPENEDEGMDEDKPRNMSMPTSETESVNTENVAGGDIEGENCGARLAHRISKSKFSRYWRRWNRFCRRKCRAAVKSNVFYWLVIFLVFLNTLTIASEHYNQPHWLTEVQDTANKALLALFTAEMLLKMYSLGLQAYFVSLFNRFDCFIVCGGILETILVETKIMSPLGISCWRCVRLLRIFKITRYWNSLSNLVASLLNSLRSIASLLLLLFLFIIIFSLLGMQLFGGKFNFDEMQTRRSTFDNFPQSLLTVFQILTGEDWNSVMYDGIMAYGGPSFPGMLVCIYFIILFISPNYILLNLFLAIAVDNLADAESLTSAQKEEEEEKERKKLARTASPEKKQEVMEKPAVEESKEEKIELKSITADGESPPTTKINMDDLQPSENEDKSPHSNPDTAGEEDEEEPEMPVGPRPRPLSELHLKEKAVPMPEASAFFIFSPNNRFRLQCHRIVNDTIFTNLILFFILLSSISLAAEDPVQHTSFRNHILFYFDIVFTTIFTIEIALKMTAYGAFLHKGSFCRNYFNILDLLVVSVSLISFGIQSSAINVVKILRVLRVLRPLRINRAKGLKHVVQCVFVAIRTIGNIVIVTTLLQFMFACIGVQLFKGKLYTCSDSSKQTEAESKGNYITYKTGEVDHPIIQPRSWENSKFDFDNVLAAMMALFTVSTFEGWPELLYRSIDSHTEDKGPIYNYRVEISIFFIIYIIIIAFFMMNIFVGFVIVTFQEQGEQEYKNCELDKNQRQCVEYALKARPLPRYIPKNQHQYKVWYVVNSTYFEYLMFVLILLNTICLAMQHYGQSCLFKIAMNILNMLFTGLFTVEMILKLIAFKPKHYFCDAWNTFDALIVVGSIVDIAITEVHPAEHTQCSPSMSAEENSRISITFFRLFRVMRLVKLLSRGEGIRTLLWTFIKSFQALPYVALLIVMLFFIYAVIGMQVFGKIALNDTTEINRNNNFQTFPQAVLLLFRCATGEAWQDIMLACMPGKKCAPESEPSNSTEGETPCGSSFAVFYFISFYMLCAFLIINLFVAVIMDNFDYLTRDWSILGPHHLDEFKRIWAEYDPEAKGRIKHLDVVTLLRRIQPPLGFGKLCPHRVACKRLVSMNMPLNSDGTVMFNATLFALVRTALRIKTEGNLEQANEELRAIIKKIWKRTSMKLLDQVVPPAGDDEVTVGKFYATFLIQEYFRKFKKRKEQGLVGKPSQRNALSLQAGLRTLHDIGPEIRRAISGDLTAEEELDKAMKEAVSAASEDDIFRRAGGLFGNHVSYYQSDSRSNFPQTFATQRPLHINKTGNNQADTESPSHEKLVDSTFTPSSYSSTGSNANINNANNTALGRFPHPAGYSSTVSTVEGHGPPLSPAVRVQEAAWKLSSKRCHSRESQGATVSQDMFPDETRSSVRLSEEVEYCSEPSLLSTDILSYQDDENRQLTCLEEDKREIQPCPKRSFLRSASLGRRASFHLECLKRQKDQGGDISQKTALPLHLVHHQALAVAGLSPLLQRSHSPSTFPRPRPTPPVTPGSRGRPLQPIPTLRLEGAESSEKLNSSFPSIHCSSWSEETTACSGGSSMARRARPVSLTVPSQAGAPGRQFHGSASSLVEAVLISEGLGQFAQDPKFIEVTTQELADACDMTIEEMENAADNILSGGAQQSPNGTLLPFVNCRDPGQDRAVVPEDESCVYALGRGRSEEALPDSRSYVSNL
# PROTOCOL_TEXT: FLIPR calcium mobilization assay for L-type calcium channel (HEK293 cells expressing recombinant rat LTCC subunits)
# STUDY_CONDITIONS: calcium mobilization in vitro assay, L-type calcium channel blockers
Counter-ions that a name gives are not always drawn.

Before answering, review these 5 worked examples.
[[record]]
molecule = "CC(C)C[C@H](N)CC(=O)N1CCC(=NOCc2cccc(C(F)(F)F)c2)CC1 [Example 24, oxalate]"
system_tested = "L-type calcium channel (LTCC) subunits (α1c, α2δ, and β1) (Rattus norvegicus)"
result = "7.2 µM"

[[record]]
molecule = "Fc1ccc(C(CCCN2CCC(=NOCc3cccc(C(F)(F)F)c3)CC2)c2ccc(F)cc2)cc1 [Example 12, oxalate]"
system_tested = "L-type calcium channel (LTCC) subunits (α1c, α2δ, and β1) (Rattus norvegicus)"
result = "> 20 µM"

[[record]]
molecule = "O=c1ccc(CON=C2CCN(S(=O)(=O)c3ccc(OC(F)(F)F)cc3)CC2)cn1Cc1ccc(F)cc1"
system_tested = "L-type calcium channel (LTCC) subunits (α1c, α2δ, and β1) (Rattus norvegicus)"
result = "> 20 µM"

[[record]]
molecule = "CCCCCC(C)ON=C1CCN(S(=O)(=O)c2cccc(C(F)(F)F)c2)CC1 (centres unmarked)"
system_tested = "L-type calcium channel (LTCC) subunits (α1c, α2δ, and β1) (Rattus norvegicus)"
result = "> 20 µM"

[[record]]
molecule = "CCCCc1ccc(S(=O)(=O)N2CCC(=NOCc3cccc(C(F)(F)F)c3)CC2)cc1"
system_tested = "L-type calcium channel (LTCC) subunits (α1c, α2δ, and β1) (Rattus norvegicus)"
result = "> 20 µM"


Look up IC50: O=C(CCC(c1ccc(F)cc1)c1ccc(F)cc1)N1CCC(=NOCc2ccncc2)CC1 [Example 19, oxalate]
4.9 µM

Look up IC50: O=S(=O)(c1ccc(OC(F)(F)F)cc1)N1CCC(=NOCc2nc3cc(Cl)cnc3[nH]2)CC1
> 20 µM

Look up IC50: N#Cc1cc(CON=C2CCN(C(c3ccc(F)cc3)c3ccc(F)cc3)CC2)ccc1F [Example 182, hydrochloride]
> 20 µM

Look up IC50: Fc1ccc(C(CCCN2CCC(=NOCc3cccnc3)CC2)c2ccc(F)cc2)cc1 [Example 16, dioxalate]
6.6 µM

Look up IC50: CCCCc1ccc(S(=O)(=O)N2CCC(=NOCc3cccc(C#N)c3)CC2)cc1
> 20 µM

Measured values drawn from patent US20090298878A1 for this set.
